Organism: Rattus norvegicus
Assay Protocol: DrugMatrix - Regimen: Daily Repeat
Format: toxicity, organism-based, Sprague-Dawley
Parameters: regimen Daily Repeat, gender Male, age 6-8 weeks
Particulars: in vivo, po, 0 mg/kg, 72 h, tissue Plasma, route oral GAVAGE, dose level Control, time 3 day, vehicle 100 % WATER
Quantity Measured: POTASSIUM (MEQ/L)

- Compound: "Cn1cc[nH]c1=S"
  Endpoint Value: 6.25
- Compound: "CC(O)CO (stereo not given)"
  Endpoint Value: 6.16
- Compound: "CN(C)CCCN1c2ccccc2Sc2ccc(Cl)cc21"
  Endpoint Value: 5.55
- Compound: "CNNCc1ccc(C(=O)NC(C)C)cc1"
  Endpoint Value: 5.85
- Compound: "c1ccc([C@H]2CN3CCSC3=N2)cc1"
  Endpoint Value: 5.95
- Compound: "COc1cc2nc(N3CCN(C(=O)C4COc5ccccc5O4)CC3)nc(N)c2cc1OC (stereo not given)"
  Endpoint Value: 5.99
- Compound: "C=CCC1(C(C)CCC)C(=O)NC(=O)NC1=O (stereo not given)"
  Endpoint Value: 6.34
- Compound: "Nc1c2c(nc3ccccc13)CCCC2"
  Endpoint Value: 7.03
- Compound: "C[C@H]1c2cccc(O)c2C(=O)C2=C(O)[C@]3(O)C(=O)C(C(N)=O)=C(O)[C@@H](N(C)C)[C@@H]3[C@@H](O)[C@@H]21.O"
  Endpoint Value: 5.99
- Compound: "C[C@](N)(Cc1ccc(O)c(O)c1)C(=O)O"
  Endpoint Value: 6.35
